- assayed.system: Receptor-type tyrosine-protein kinase FLT3 (Homo sapiens)
- method.notes: inhibitors of Homo sapiens fms-like tyrosine kinase 3, primary HTS, cell-free, LANCE Ultra TR-FRET, NPC library from NCATS (AID 1117356)
- condition.set: recombinant FLT3, LANCE Ultra TR-FRET kinase assay; at 20 µM; hits give high values
quantity.name: inhibition (%)

[[record]]
compound = "CCC1=C[C@@H]2CN(C1)Cc1c([nH]c3ccccc13)[C@@](C(=O)OC)(c1cc3c(cc1OC)N(C)[C@H]1[C@@](O)(C(=O)OC)[C@H](OC(C)=O)[C@]4(CC)C=CCN5CC[C@]31[C@@H]54)C2"
assayed_system = "Receptor-type tyrosine-protein kinase FLT3 (Homo sapiens)"
reading = -1.29

[[record]]
compound = "CCCCc1oc2ccccc2c1C(=O)c1cc(I)c(OCCN(CC)CC)c(I)c1"
assayed_system = "Receptor-type tyrosine-protein kinase FLT3 (Homo sapiens)"
reading = 20.7

[[record]]
compound = "COc1cccc2c1C(=O)c1c(O)c3c(c(O)c1C2=O)C[C@@](O)(C(C)=O)C[C@@H]3O[C@H]1C[C@H](N)[C@H](O)[C@H](C)O1"
assayed_system = "Receptor-type tyrosine-protein kinase FLT3 (Homo sapiens)"
reading = -2.27

[[record]]
compound = "Nc1nc(=S)c2[nH]cnc2[nH]1"
assayed_system = "Receptor-type tyrosine-protein kinase FLT3 (Homo sapiens)"
reading = -3.73

[[record]]
compound = "CC(=O)Oc1ccc(C2(c3ccc(OC(C)=O)cc3)Oc3ccccc3NC2=O)cc1"
assayed_system = "Receptor-type tyrosine-protein kinase FLT3 (Homo sapiens)"
reading = 17.5

[[record]]
compound = "CSc1ccc2c(c1)C(N1CCN(C)CC1)Cc1ccccc1S2 (configuration not stated)"
assayed_system = "Receptor-type tyrosine-protein kinase FLT3 (Homo sapiens)"
reading = 44.8

[[record]]
compound = "O=C(CCCCCCC(=O)Nc1ccccc1)NO"
assayed_system = "Receptor-type tyrosine-protein kinase FLT3 (Homo sapiens)"
reading = -5.57

[[record]]
compound = "Cc1cc2c(C(C)C)c(O)c(O)c(C=O)c2c(O)c1-c1c(C)cc2c(C(C)C)c(O)c(O)c(C=O)c2c1O"
assayed_system = "Receptor-type tyrosine-protein kinase FLT3 (Homo sapiens)"
reading = 8.28

[[record]]
compound = "COc1cc(-c2ccc(=O)[nH]n2)ccc1OC(F)F"
assayed_system = "Receptor-type tyrosine-protein kinase FLT3 (Homo sapiens)"
reading = -7.69

[[record]]
compound = "CC(C)C[C@H](NC(=O)[C@H](Cc1ccccc1)NC(=O)c1cnccn1)B(O)O"
assayed_system = "Receptor-type tyrosine-protein kinase FLT3 (Homo sapiens)"
reading = 3.25

[[record]]
compound = "[O-][n+]1ccccc1SSc1cccc[n+]1[O-]"
assayed_system = "Receptor-type tyrosine-protein kinase FLT3 (Homo sapiens)"
reading = -9.22

[[record]]
compound = "O=C(Nc1ccc([N+](=O)[O-])cc1Cl)c1cc(Cl)ccc1O"
assayed_system = "Receptor-type tyrosine-protein kinase FLT3 (Homo sapiens)"
reading = 19.6

[[record]]
compound = "CCCCCCCCCCCCCCCC[n+]1ccccc1"
assayed_system = "Receptor-type tyrosine-protein kinase FLT3 (Homo sapiens)"
reading = -7.99

[[record]]
compound = "COC(=O)Nc1nc2ccc(C(=O)C3CC3)cc2[nH]1"
assayed_system = "Receptor-type tyrosine-protein kinase FLT3 (Homo sapiens)"
reading = 68.8

[[record]]
compound = "Cc1cc(O)c2ccccc2c1O"
assayed_system = "Receptor-type tyrosine-protein kinase FLT3 (Homo sapiens)"
reading = 37.3

[[record]]
compound = "COC(=O)Nc1nc2ccc(S(=O)c3ccccc3)cc2[nH]1 (configuration not stated)"
assayed_system = "Receptor-type tyrosine-protein kinase FLT3 (Homo sapiens)"
reading = -8.2

[[record]]
compound = "COC(=O)Nc1nc2ccc(C(=O)c3ccccc3)cc2[nH]1"
assayed_system = "Receptor-type tyrosine-protein kinase FLT3 (Homo sapiens)"
reading = 11.7

[[record]]
compound = "CCCOc1ccc2nc(NC(=O)OC)[nH]c2c1"
assayed_system = "Receptor-type tyrosine-protein kinase FLT3 (Homo sapiens)"
reading = 1.68

[[record]]
compound = "CC(C)(C)C(=O)OCOP(=O)(COCCn1cnc2c(N)ncnc21)OCOC(=O)C(C)(C)C"
assayed_system = "Receptor-type tyrosine-protein kinase FLT3 (Homo sapiens)"
reading = 6.16

[[record]]
compound = "CC[C@]1(O)C[C@H]2CN(CCc3c([nH]c4ccccc34)[C@@](C(=O)OC)(c3cc4c(cc3OC)N(C=O)[C@H]3[C@@](O)(C(=O)OC)[C@H](OC(C)=O)[C@]5(CC)C=CCN6CC[C@]43[C@@H]65)C2)C1"
assayed_system = "Receptor-type tyrosine-protein kinase FLT3 (Homo sapiens)"
reading = -0.99

[[record]]
compound = "Oc1c(Cl)cc(Cl)cc1Sc1cc(Cl)cc(Cl)c1O"
assayed_system = "Receptor-type tyrosine-protein kinase FLT3 (Homo sapiens)"
reading = 13.6

[[record]]
compound = "Oc1c(I)cc(I)c2cccnc12"
assayed_system = "Receptor-type tyrosine-protein kinase FLT3 (Homo sapiens)"
reading = 12.8

